Origin of values: the kinase profiling compilation of Christmann-Franck et al. (2016)

biological target: CDK4 CCND1 (human) (UniProt P24385+P11802); assay: radiometric filter-binding kinase assay, Kinase HotSpot; details: compound 0.5 µM; ATP 10 µM
Sequence (P11802 whole entry, looked up): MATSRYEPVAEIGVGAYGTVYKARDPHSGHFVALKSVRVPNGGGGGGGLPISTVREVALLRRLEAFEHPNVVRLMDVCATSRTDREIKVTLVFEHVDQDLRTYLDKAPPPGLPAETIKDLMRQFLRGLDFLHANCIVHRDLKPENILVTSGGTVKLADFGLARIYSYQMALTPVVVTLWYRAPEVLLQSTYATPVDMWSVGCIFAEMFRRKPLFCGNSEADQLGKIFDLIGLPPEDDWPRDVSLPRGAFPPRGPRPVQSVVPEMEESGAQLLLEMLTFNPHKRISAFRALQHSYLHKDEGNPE
Sequence (P24385 whole entry, looked up): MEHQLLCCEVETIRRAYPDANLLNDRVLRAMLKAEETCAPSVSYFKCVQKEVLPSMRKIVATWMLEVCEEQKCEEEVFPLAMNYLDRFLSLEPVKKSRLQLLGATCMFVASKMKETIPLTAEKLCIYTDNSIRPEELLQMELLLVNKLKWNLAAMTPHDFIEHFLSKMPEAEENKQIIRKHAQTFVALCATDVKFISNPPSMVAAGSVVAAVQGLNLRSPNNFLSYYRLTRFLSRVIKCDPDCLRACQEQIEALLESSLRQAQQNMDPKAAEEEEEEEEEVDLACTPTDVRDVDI
RESULT_TYPE: residual activity (%)
Could you give me the number in %? Just the number is fine.

1. C[C@@H]1CCN(C(=O)CC#N)C[C@@H]1N(C)c1ncnc2[nH]ccc12: 94.1
2. COc1cc2ncnc(Nc3ccc(OCc4ccccc4)cc3)c2cc1OC: 99.2
3. O=C1c2ccccc2-c2nc3nnnn3nc21: 59.9

Prompt: Endpoint output: residual activity of "O=C1Nc2ccc(Br)cc2/C1=C\c1cc2c([nH]1)CCCC2" . Value?
Completion: 97.9

Prompt: Endpoint output: residual activity of "COc1ccc(C(=O)Nc2sc3c(c2C(N)=O)CCCC3)cc1OC" . Value?
Completion: 95.9
